Assay: cn = amount concentration of the nth substance listed, in mol/dm3
Settings: 313 K, Ring tensiometer, c1 = 0.00316
Measured surface tension liquid-gas values are reported for all entries that follow.
The answer is to be given in mN/m; state only the numeric part.

Completed entries (count: 3):
MOLECULE: CCCCCCCCCCCC[N+](C)(C)CC.[Br-] [dodecyl ethyl dimethylammonium bromide] + O
MEASUREMENT: 55.17
--
MOLECULE: CCCCCCCCCCCC[N+](C)(C)Cc1ccccc1.[Br-] [benzenemethanaminium, N-dodecyl-N,N-dimethyl, bromide] + O
MEASUREMENT: 35.76
--
MOLECULE: CCCCCCCCCCCCN(C)CC(=O)[O-].[Na+] [sodium laurylsarcosinate] + O
MEASUREMENT: 27.5

Entry CCCCCCCCCCCCCC[N+](C)(C)C.[Br-] [tetradecyltrimethylammonium bromide] + O has what surface tension liquid-gas?
36.05

---

Assay: cn = amount concentration of the nth substance listed, in mol/dm3
Settings: 303 K, Ring tensiometer, c1 = 1e-06
REPORTED_ENDPOINT: surface tension liquid-gas (mN/m)
Number only, in mN/m; omit the unit.

# count of solved cases: 2
MOLECULE: CCCCCCCCCCCCCCCC[n+]1ccccc1.[Br-] [1-hexadecylpyridinium bromide] + O
UNIT_OF_MEASUREMENT: mN/m
surface tension liquid-gas: 71.07

MOLECULE: CCCCCCCCCCCCCCCC[N+](C)(C)C.[Br-] [N,N,N-trimethyl-1-hexadecanaminium bromide] + O
UNIT_OF_MEASUREMENT: mN/m
surface tension liquid-gas: 71.11

Now consider a different molecule.
Recorded surface tension liquid-gas of CCCCCCCCCCCC[N+](C)(C)Cc1ccccc1.[Br-] [benzenemethanaminium, N-dodecyl-N,N-dimethyl, bromide] + O , please.
70.98

---

Experiment: cn = amount concentration of the nth substance listed, in mol/dm3
Conditions: 313 K, Ring tensiometer, c1 = 0.01
Parameter surface tension liquid-gas: see the listing below.
Write the answer as a number in mN/m, unit excluded.

COMPOUND: CCCCCCCCCCCC[N+](C)(C)CC.[Br-] [dodecyl ethyl dimethylammonium bromide] + O
surface tension liquid-gas [mN/m]: 39.82
--
COMPOUND: CCCCCCCCCCCCOS(=O)(=O)[O-].[Na+] [sodium dodecyl sulfate] + O
surface tension liquid-gas [mN/m]: 36.42
--
COMPOUND: CCCCCCCCCCCC[N+](C)(C)Cc1ccccc1.[Br-] [benzenemethanaminium, N-dodecyl-N,N-dimethyl, bromide] + O
surface tension liquid-gas [mN/m]: 32.67

Tell me the measured surface tension liquid-gas of CCCCCCCCCCCCCC[N+](C)(C)C.[Br-] [tetradecyltrimethylammonium bromide] + O , please.
35.38

Param item = CCCCCCCCCCCCN(C)CC(=O)[O-].[Na+] [sodium laurylsarcosinate] + O ; retrieve measured surface tension liquid-gas.
25.42

Endpoint output: surface tension liquid-gas of CCCCCCCCCCCCCCCC[n+]1ccccc1.[Br-] [1-hexadecylpyridinium bromide] + O . Value?
42.65

---

Test: cn = amount concentration of the nth substance listed, in mol/dm3
Conditions: 313 K, Ring tensiometer, c1 = 5.01e-05
REPORTED_ENDPOINT: surface tension liquid-gas (mN/m)
Please reply with the bare figure in mN/m and do not write the unit itself.

Observe how each entry below is paired with its result.
MOLECULE: CCCCCCCCCCCCN(C)CC(=O)[O-].[Na+] [sodium laurylsarcosinate] + O
UNIT_OF_MEASUREMENT: mN/m
MEASUREMENT: 66.49
//
MOLECULE: CCCCCCCCCCCCCC[N+](C)(C)C.[Br-] [tetradecyltrimethylammonium bromide] + O
UNIT_OF_MEASUREMENT: mN/m
MEASUREMENT: 67.49

Please look up its surface tension liquid-gas: CCCCCCCCCCCC[N+](C)(C)CC.[Br-] [dodecyl ethyl dimethylammonium bromide] + O
69.24

Entry under review: CCCCCCCCCCCCCCCC[N+](C)(C)C.[Br-] [N,N,N-trimethyl-1-hexadecanaminium bromide] + O . Reported surface tension liquid-gas?
66.51

Query (molecule): CCCCCCCCCCCC[N+](C)(C)Cc1ccccc1.[Br-] [benzenemethanaminium, N-dodecyl-N,N-dimethyl, bromide] + O ; field requested: surface tension liquid-gas
64.1

Using the record for CCCCCCCCCCCCOS(=O)(=O)[O-].[Na+] [sodium dodecyl sulfate] + O , report its surface tension liquid-gas.
69.48

What surface tension liquid-gas value was documented for this molecule, CCCCCCCCCCCCCCCC[n+]1ccccc1.[Br-] [1-hexadecylpyridinium bromide] + O ?
65.26

---

Assay: cn = amount concentration of the nth substance listed, in mol/dm3
Details: 293 K, Ring tensiometer, c1 = 5.01e-07
REPORTED_ENDPOINT: surface tension liquid-gas (mN/m)
Entry rule: numbers only, all in mN/m.

MOLECULE: CCCCCCCCCCCCCCCC[n+]1ccccc1.[Br-] [1-hexadecylpyridinium bromide] + O
UNIT_OF_MEASUREMENT: mN/m
surface tension liquid-gas: 72.7
//
MOLECULE: CCCCCCCCCCCC[N+](C)(C)Cc1ccccc1.[Br-] [benzenemethanaminium, N-dodecyl-N,N-dimethyl, bromide] + O
UNIT_OF_MEASUREMENT: mN/m
surface tension liquid-gas: 72.3
//
MOLECULE: CCCCCCCCCCCCN(C)CC(=O)[O-].[Na+] [sodium laurylsarcosinate] + O
UNIT_OF_MEASUREMENT: mN/m
surface tension liquid-gas: 72.2

Which surface tension liquid-gas value belongs to CCCCCCCCCCCCCC[N+](C)(C)C.[Br-] [tetradecyltrimethylammonium bromide] + O ?
72.3

// query surface tension liquid-gas value for entry CCCCCCCCCCCCCCCC[N+](C)(C)C.[Br-] [N,N,N-trimethyl-1-hexadecanaminium bromide] + O
72.73

Quick one: surface tension liquid-gas of CCCCCCCCCCCC[N+](C)(C)CC.[Br-] [dodecyl ethyl dimethylammonium bromide] + O ?
72.4

---

surface tension liquid-gas: recorded values
Assay: cn = amount concentration of the nth substance listed, in mol/dm3
Details: 293 K, Ring tensiometer, c1 = 1e-06
Numbers after ± are expanded uncertainties.

Here are 2 compounds together with their reported answers.
COMPOUND: CCCCCCCCCCCC[N+](C)(C)Cc1ccccc1.[Br-] [benzenemethanaminium, N-dodecyl-N,N-dimethyl, bromide] + O
surface tension liquid-gas: 71.6 ± 1.3 mN/m
--
COMPOUND: CCCCCCCCCCCCCCCCS(=O)(=O)[O-].[Na+] [sodium hexadecylsulfonate] + O
surface tension liquid-gas: 72.7 ± 1.3 mN/m

What value of measured surface tension liquid-gas is listed for CCCCCCCCCCCC[N+](C)(C)CC.[Br-] [dodecyl ethyl dimethylammonium bromide] + O ?
72.3 ± 1.3 mN/m

Recorded surface tension liquid-gas of CCCCCCCCCCCCCCCC[N+](C)(C)C.[Br-] [N,N,N-trimethyl-1-hexadecanaminium bromide] + O , please.
72.66 ± 1.3 mN/m

---

Examples of compounds with documented surface tension liquid-gas follow.
Assay: cn = amount concentration of the nth substance listed, in mol/dm3
Conditions: 303 K, Ring tensiometer, c1 = 1e-05
Give just the number in mN/m; leave the unit off.

Solved cases below.
COMPOUND: CCCCCCCCCCCC[N+](C)(C)CC.[Br-] [dodecyl ethyl dimethylammonium bromide] + O
UNIT_OF_MEASUREMENT: mN/m
MEASUREMENT: 71.06

COMPOUND: CCCCCCCCCCCC[N+](C)(C)Cc1ccccc1.[Br-] [benzenemethanaminium, N-dodecyl-N,N-dimethyl, bromide] + O
UNIT_OF_MEASUREMENT: mN/m
MEASUREMENT: 69.44

COMPOUND: CCCCCCCCCCCCCCCCS(=O)(=O)[O-].[Na+] [sodium hexadecylsulfonate] + O
UNIT_OF_MEASUREMENT: mN/m
MEASUREMENT: 70.54

COMPOUND: CCCCCCCCCCCCN(C)CC(=O)[O-].[Na+] [sodium laurylsarcosinate] + O
UNIT_OF_MEASUREMENT: mN/m
MEASUREMENT: 70.28

COMPOUND: CCCCCCCCCCCCOS(=O)(=O)[O-].[Na+] [sodium dodecyl sulfate] + O
UNIT_OF_MEASUREMENT: mN/m
MEASUREMENT: 71

Recorded surface tension liquid-gas of CCCCCCCCCCCCCCCC[N+](C)(C)C.[Br-] [N,N,N-trimethyl-1-hexadecanaminium bromide] + O , please.
70.37

Any idea what its surface tension liquid-gas is? The compound is CCCCCCCCCCCCCCCC[n+]1ccccc1.[Br-] [1-hexadecylpyridinium bromide] + O
69.97

---

Measured surface tension liquid-gas by item
Test: cn = amount concentration of the nth substance listed, in mol/dm3
Conditions: 293 K, Ring tensiometer, c2 = 0
Use mN/m as the unit, but write only the number.

MOLECULE: O [water] + CCCCCCCCCCCCCCCC[N+](C)(C)C.[Br-]
MEASUREMENT: 72.8

Sample O [water] + CCCCCCCCCCCCCCCC[n+]1ccccc1.[Br-] — what was its surface tension liquid-gas?
72.8

Which surface tension liquid-gas is listed for O [water] + CCCCCCCCCCCCCC[N+](C)(C)C.[Br-] ?
72.8
